- assayComment: M. tuberculosis growth inhibition, HTS (AID 449762);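 also: bacterial growth assessed after seven days of incubation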
- experimentalSetup: M. tuberculosis H37Rv growth inhibition, 7H9 media; at 25 µM; hits give high values
About 1,900 (0.58%) of roughly 330,000 compounds were called active. Another 4% or so got no clear call; they are omitted. Only a sample is shown. Measured potencies and affinities stand elsewhere.
observationType: inhibition (%)
Answer with a number only, understood to be in %.

Previously resolved entries follow.
{"compound": "Cc1cc(C(=O)Nc2nc3ccc(S(C)(=O)=O)cc3s2)c(C)o1", "unitsLabel": "%", "reading": -11.6}
{"compound": "Cc1ccccc1NC(=O)CN1C(=O)NC2(CCc3ccccc32)C1=O (stereo not drawn)", "unitsLabel": "%", "reading": 8.44}
{"compound": "CCCn1c(NC(=S)Nc2ccccc2)nc2ccccc21", "unitsLabel": "%", "reading": 2.43}
{"compound": "O=C(CSc1cccc(C(F)(F)F)c1)Nc1ccc(Cl)cc1Cl", "unitsLabel": "%", "reading": -3.06}
{"compound": "CCNCCNC(=O)c1c(O)c2c([nH]c1=O)CCCC2", "unitsLabel": "%", "reading": -0.1}

Prompt: // query inhibition value for entry CCCCn1nc(C(=O)NCc2ccccc2CN2CCCC2)c2ccccc2c1=O
Response: -5.37

Prompt: Quick check: inhibition of CCCn1nc(C(=O)NNC(=O)c2ccc(OC(F)F)cc2)c2ccccc2c1=O ?
Response: 3.96

Prompt: What value of inhibition has been reported for the following compound? COc1cc(/C=N/NC(=O)c2cc3ccccc3cc2O)ccc1OCCN1CCCCC1
Response: 9.28

Prompt: Entry CCOC(=O)CSc1cc(C)c(C#N)c2nc3ccccc3n12 has what inhibition?
Response: 9.77

Prompt: Which inhibition is listed for CCOc1ccc(OCCCC(=O)NC2=NCCS2)cc1 ?
Response: 1.39

Prompt: # get_value(readout='inhibition', item= O=C(Nc1ccc(N2CCOCC2)cc1)c1ccc([N+](=O)[O-])cc1 )
Response: 1.26

Prompt: Entry Cc1nnc(SCC(=O)NC2CCCCC2)n1N has what inhibition?
Response: 3.31

Prompt: Dear colleague, I am looking for the recorded inhibition of the following compound: O=C(Nc1ccccc1)c1nc2ccccc2s1
Response: 23.7

Prompt: Please look up its inhibition: CCOC(=O)C1CCN(Cc2coc3c(Cl)cc(Cl)cc3c2=O)CC1
Response: 10.8

Prompt: Find the recorded inhibition belonging to Cn1nc(C(=O)Nc2ccccc2N2CCCC2)c2ccccc2c1=O and report it.
Response: 54.7

Prompt: Report inhibition for Cc1ccc2c(c1)nnn2C1CCN(CC(=O)c2ccc(Cl)cc2)CC1 please.
Response: 2.57

src = PubChem BioAssay AID449762
